Sourced from patent US20260209362A1

Item-by-item account of dMFI
Molecular target: T1, human IL-12Rβ2 (human, UniProt Q99665 24-862)
T1 construct: Expressed on HEK293T cells transiently transfected with a pcDNA3 plasmid (Genscript clone OHu21785); also called hIL-12RB2; IL-12 receptor β2 subunit
T1 sequence: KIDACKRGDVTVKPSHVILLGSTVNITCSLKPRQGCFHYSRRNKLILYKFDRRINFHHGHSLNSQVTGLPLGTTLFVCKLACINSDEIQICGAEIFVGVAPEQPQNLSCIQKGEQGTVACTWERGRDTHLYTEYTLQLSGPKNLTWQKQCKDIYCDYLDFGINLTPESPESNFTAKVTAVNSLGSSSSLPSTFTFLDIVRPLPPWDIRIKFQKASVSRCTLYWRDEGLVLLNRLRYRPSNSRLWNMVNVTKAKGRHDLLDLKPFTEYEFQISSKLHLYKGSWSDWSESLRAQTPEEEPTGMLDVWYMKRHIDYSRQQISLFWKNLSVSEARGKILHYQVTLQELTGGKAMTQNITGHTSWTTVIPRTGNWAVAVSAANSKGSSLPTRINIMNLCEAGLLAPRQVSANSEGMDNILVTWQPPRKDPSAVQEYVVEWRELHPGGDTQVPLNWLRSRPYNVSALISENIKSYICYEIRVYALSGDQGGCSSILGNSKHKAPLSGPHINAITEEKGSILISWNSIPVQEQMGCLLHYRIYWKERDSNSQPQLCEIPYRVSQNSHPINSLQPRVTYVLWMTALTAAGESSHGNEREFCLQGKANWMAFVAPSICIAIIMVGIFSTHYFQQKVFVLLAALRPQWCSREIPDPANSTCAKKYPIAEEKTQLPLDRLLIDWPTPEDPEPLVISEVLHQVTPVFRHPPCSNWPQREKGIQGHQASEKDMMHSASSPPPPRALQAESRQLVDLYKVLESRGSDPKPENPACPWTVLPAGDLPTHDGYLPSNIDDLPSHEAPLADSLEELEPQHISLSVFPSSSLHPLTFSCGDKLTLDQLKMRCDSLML
Assay: flow cytometry, P.E. on transfected HEK293T cells

binder | dMFI
anti-IL-12Rβ2 VHH clone 3CAHS52 (VHH, not shown: small tags and cut ends, periplasmic extract) VHH: QVQLQESGGGSVQAGGSLRLSCAASGRTINAYIMGWFRQAPGKEREFVAAVSGSGGSTYYADSVKGRFTISRDNAKNTVNLQMDNLRSEDTDVYYCAATYESVYLQNPGQYDYWGQGTQVTVSS | 1110
anti-IL-12Rβ2 VHH clone 3CAHS53 (VHH, not shown: small tags and cut ends, periplasmic extract) VHH: QVQLQESGGGLVEPGGSLRLSCAASGRTINAYIMGWFRQAPGKEREFVAAVSGSGGSTYYADSVKGRFTISRDSAKNTVNLQMDNLRSEDTDVYYCAATYESVYLQNPGQYDYWGQGTQVTVSS | 1460
anti-IL-12Rβ2 VHH clone 3CRHM18 (VHH, not shown: small tags and cut ends, periplasmic extract) VHH: QVQLQESGGGLVQDGGSLRLSCAASGRTFSNYAMAWFRQAPGTEREFVAGLSGSGGDTAFYDNSVMGRFTISRDSAKNTMWLQINNLKPEDTAVYYCAAATHVVVSYGLVRKRGTYDYWGQGTQVTVSS | 767
anti-IL-12Rβ2 VHH clone 3CRHS55 (VHH, not shown: small tags and cut ends, periplasmic extract) VHH: QVQLQESGGGLVQAGGSLNLSCTASGSIISIYNMDWYRQAPGNQREWVASITSNGDSYYDGSAKGRFTISRDNAKMTVYLQMNSLKPEDTAVYYCKVPTENGNYWGQGTQVTVSS | 961
anti-IL-12Rβ2 VHH clone 3CRH59 (VHH, not shown: small tags and cut ends, periplasmic extract) VHH: QVQLQESGGGLVQPGGSLRLSCTASGFAFSSYWMYWVRQTPGKGFEWVSVVNPGGEITYYGDSMEDRFTISRDNAKNTLYLQMNSLKPEDTGLYYCARDRTTIDYTRTYYRGGQGTQVTVSS | 1170
anti-IL-12Rβ2 VHH clone 2CRH82 (VHH, not shown: small tags and cut ends, periplasmic extract) VHH: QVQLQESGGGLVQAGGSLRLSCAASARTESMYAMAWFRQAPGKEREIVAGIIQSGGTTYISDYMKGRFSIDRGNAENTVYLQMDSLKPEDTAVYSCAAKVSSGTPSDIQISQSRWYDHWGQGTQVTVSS | 844
anti-IL-12Rβ2 VHH clone 3CRHM200 (VHH, not shown: small tags and cut ends, periplasmic extract; also called 21064) VHH: QVQLQESGGGLVQPGGSLRLSCAASGRTFSNYAMAWFRQAPGTEREFVAGLSGSGGDTAFYDNSVMGRFTISRDSAKNTMWLQINNLKPEDTAVYYCAAATHVVVSYGLVRRRGTYDYWGQGTQVTVSS | 694
anti-IL-12Rβ2 VHH clone 2CRH53 (VHH, not shown: small tags and cut ends, periplasmic extract) VHH: QVQLQESGGGLVQAGGSLVLSCAASGSAALIFLMSWYRQAPGKQRELVAEVSRYGSTTYADSVEGRFTISRDNAKDIVDLQMNSLKPEDTAVYYCKADQYYGDSLRSSWGRGTQVTVSS | 686
anti-IL-12Rβ2 VHH clone 3CRHS163 (VHH, not shown: small tags and cut ends, periplasmic extract) VHH: QVQLQESGGGLVQPGGSLRLSCTASGFAFSTYWMYWIRQSPEKGFEWVSVVNTGGDITYYADSVKGRFTISRDNAKNTLYLQMNSLKPEDTALYYCARDRTTMSYTRTYYRGGQGTQVTVSS | 1150
anti-IL-12Rβ2 VHH clone 3CRHM99 (VHH, not shown: small tags and cut ends, periplasmic extract; also called 21062) VHH: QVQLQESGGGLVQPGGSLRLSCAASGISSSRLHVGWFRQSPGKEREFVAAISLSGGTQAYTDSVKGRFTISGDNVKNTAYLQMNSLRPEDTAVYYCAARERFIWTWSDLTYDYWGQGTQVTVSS | 558
anti-IL-12Rβ2 VHH clone 3CRHS156 (VHH, not shown: small tags and cut ends, periplasmic extract) VHH: QVQLQESGGGLVQSGGSLRLSCVSSQTLVGIEAMGWYRQAPGKQRELVALITLNGGTFYADSVKGRFAISRDVAEHMLYLEMNSLNPEDTAVYFCVAGVESDNEEPTYWGQGTQVTVSS | 222
anti-IL-12Rβ2 VHH clone 3CRHS128 (VHH, not shown: small tags and cut ends, periplasmic extract) VHH: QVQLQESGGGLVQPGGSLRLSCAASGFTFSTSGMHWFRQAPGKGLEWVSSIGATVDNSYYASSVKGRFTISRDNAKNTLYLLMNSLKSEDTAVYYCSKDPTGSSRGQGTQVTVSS | 1480
anti-IL-12Rβ2 VHH clone 3CAHS150 (VHH, not shown: small tags and cut ends, periplasmic extract) VHH: QVQLQESGGGSVQAGGSLRLSCAASGRTINAYVMGWFRQAPGKEREFVAAISGSGGSTYYADSVKGRFTISRDNAKNTVNLQMDNLRSEDTDVYYCAATYESVYLQNPGQYDYWGQGTQVTVSS | 1270
anti-IL-12Rβ2 VHH clone 3CAHM11 (VHH, not shown: small tags and cut ends, periplasmic extract) VHH: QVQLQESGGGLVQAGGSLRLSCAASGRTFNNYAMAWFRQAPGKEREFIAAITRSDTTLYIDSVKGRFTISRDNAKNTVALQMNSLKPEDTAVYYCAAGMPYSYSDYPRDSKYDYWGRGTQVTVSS | 784
anti-IL-12Rβ2 VHH clone 3CRHM85 (VHH, not shown: small tags and cut ends, periplasmic extract; also called 21061) VHH: QVQLQESGGGLVQPGGSLRLSCAASRRTFSKHAMAWFRQAPGKEREFVAVVRWSGIITYYADSVKGRFTISRDDAKNTVYLQMDSLKPEDTAVYYCAAGDYRGNGYYVPGMYDYWGQGTQVTVSS | 676
